# assay_explanation: pH profile of enzymes on 1 mM ATP
# Format: biochemical
# stated_conditions: 50 mM trisodium citrate/citric acid, 5 mM CaCl2, relative to the highest value
assay_metric: Relative activity on ATP, pH 3
One number for each entry.

# molecule, Relative activity on ATP, pH 3
data = [
    ("CRC25089: Acid phosphatase (Class A), accession WP_217352265.1, SEQ ID NO:22 (protein, listed as Paraburkholderia bonniea) AGSDGFLTAETAPSSLAILPPPPAENTVAFLNDKANYEIGRSLKNDARVALAASDANCKNINAIFSSAFGREISEEKTPKLYRLLLGVLQDSHDHAMKSAKNHYMRVRPFVMYGDKTCTPEEDNKMKNTGSYPSGHASFGWAAALVLSEINPERTTEILRRGYDFGQSRVVCGAHWQSDVDNGRLMGAAVVADLHNNDKFIKALEAAKAEFKENTPGN", 0.8),
]

Prompt: I have this molecule here, CRC25100: Acid phosphatase (Class A), internal database, SEQ ID NO:24 (protein, environmental sample) GENSGFLSPETSPNSLEILPPPPSEGSIAFLNDKANYDIGHTLKNEGRLAQAVSDANYKNLTDAFSKAFGETISEQNTPALYSLLQNVLQDSHDFAMRAAKDHYKRVRPFVIYKDHTCTPAEDTKMAKTGSYPSGHASFGWATALVLSEINPARETEILKRGYEFGQSRVICGAHWQSDVDSGRIMGAAVVASLHNNSDFISALAKAKEEFRKK , and I need its recorded Relative activity on ATP, pH 3.
Completion: 0.0
